The values you see were collected from PubChem BioAssay.

The entries below are paired with their reported z-score.
Experiment: S. cerevisiae RM11-1a growth modifiers, primary screen, strain RM11-1a, OD600, basal, 24 h (AID 1177);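 further: cultures grown under basal conditions with no added stressor; test concentration not given here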
Settings: OD600, 24 h, higher = more signal, called active from +8 up or from −8 down
In your answer, state the number alone without any accompanying words.

* C[C@@H]1C=CCC(=O)OC[C@H](C)C(=O)N[C@@H](Cc2ccccc2)C(=O)OC1 | -0.868

Lookup: Answer with the recorded z-score of `C#CCCCON=C1C[C@@H](O)[C@@H](O)[C@@H]2[C@@H]3C(=O)N([C@@H](C)c4ccccc4)C(=O)[C@@H]3CC[C@@H]12` only.
Found: 0.604

Lookup: Return z-score for the following compound: `C#CCCCON=C1C[C@@H](O)[C@@H](O)[C@@H]2[C@@H]3C(=O)N(C4CCCCC4)C(=O)[C@@H]3CC[C@@H]12`
Found: -1.88

Lookup: Find the measured z-score of `CO[C@H]1COC(=O)[C@H](C)COC(=O)[C@@H](OCc2ccccc2)C=C[C@@H]1C` and report it.
Found: -0.077

###

Target: Neurogenic locus notch homolog protein 3 (Homo sapiens)
Assay: NOTCH3 binders on small-molecule microarray, primary screen, biochemical, 635/667 nm fluorescence (AID 1096)
Settings: NOTCH3 binding, 635 nm fluorescence, higher = more signal
Each entry gets no if its composite z-score stays under 0.5, and yes if its composite z-score is 0.5 or above.

Example entries and their recorded answers appear below.
* CCO[C@H](c1cc(OC)cc([N+](=O)[O-])c1OC)[C@H](C)[C@@H](OC)[C@H](C)C=CCC(=O)OC | yes
* CC(C)CON=C1C[C@@H](O)[C@@H](O)[C@@H]2[C@@H]3C(=O)N(Cc4ccc5c(c4)OCO5)C(=O)[C@@H]3CC[C@@H]12 | no
* O=C1[C@H]2[C@H]3[C@H](O)[C@H](O)CC(=NO[C@@H]4O[C@H](CO)[C@@H](O)[C@H](O)[C@H]4O)[C@@H]3CC[C@H]2C(=O)N1C1CCCCC1 | yes
* C=CCOCC1CN2[C@@H](CC[C@@H](C)[C@@H]2c2ccc(Br)cc2)C(=O)O1 (stereo not given in full) | no
* CCOC(=O)[C@H](CC(C)C)NC(=O)CCC1CC(OC(=O)NCCc2ccc(F)cc2)CC2(CCCC(COC(=O)NCCCN3CCCC3=O)O2)O1 (stereo not given in full) | yes
* C[C@@H](c1ccccc1)N1C(=O)[C@H]2[C@H]3[C@H](O)[C@H](O)CC(=NNC(=O)OCc4ccccc4)[C@@H]3CC[C@H]2C1=O | no
* CCOC(=O)CCN1C(=O)[C@H]2[C@@H]3C(=CC[C@H]2C1=O)C(=O)[C@H]1O[C@H]1[C@H]3O | no
* COCCNC(=O)OCC1CCCC2(CC(OC(=O)NCc3cccc4ccccc34)CC(CCC(=O)N[C@@H](C)C(=O)OC)O2)O1 (stereo not given in full) | yes

Lookup: Is reported composite z-score greater than or equal to 0.5 here: `CO[C@@H]1COC(=O)[C@@H]2CCCN2C(=O)[C@@H](C)COC(=O)CCC[C@H]1C`
Found: yes

Lookup: Threshold query (composite z-score >= 0.5) on `CC(C)[C@@H](OCc1ccccc1)[C@H](C)CON=C1[C@H]2CCn3c(=O)n(-c4ccccc4)c(=O)n3[C@H]2[C@H](O)[C@@H]2O[C@H]12`
Found: yes
